Where do the numbers come from? From patent US20260042850A1.

target_entity: T1, cynomolgus monkey C-MET His tag, monomeric (cynomolgus monkey, UniProt A0M8R7 25-932 (Papio anubis entry))
T1 construct: also called monomeric cyno C-MET; cyCMET
experimental_protocol: SPR Biacore, IgG captured, monomeric C-MET-His analyte
quantity_measured: kon (M⁻¹ s⁻¹)
Note: unit M⁻¹ s⁻¹ is implicit; provide only the numeric part.

What does the data say about its kon? Entry: MH10 (antibody, IgG4, V domains shown) VH: QVQLVQSGAEVKKPGASVKVSCKASGYTFTSYAMHWVRQAPGQGLEWMGWINPSGGSTSYAQKFQGRVTMTRDTSTSTVYMELSSLRSEDTAVYYCARQEITTEFDYWGQGTLVTVSS VL: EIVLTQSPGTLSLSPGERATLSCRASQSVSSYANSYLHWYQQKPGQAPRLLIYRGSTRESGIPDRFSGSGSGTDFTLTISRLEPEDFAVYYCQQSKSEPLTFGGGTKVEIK
180000

Proceed to 09E04 (antibody, IgG4, V domains shown) VH: QVQLVQSGAEVKKPGASVKVSCKASGYIFTSYTMHWVRQAPGQGLEWMGWINPNGGSTSYAQKFQGRVTMTRDTSTSTVYMELSSLRSEDTAVYYCARQEITTEFDYWGQGTLVTVSS VL: EIVLTQSPGTLSLSPGERATLSCRASQSVESYANSYLHWYQQKPGQAPRLLIYRGSTRESGIPDRFSGSGSGTDFTLTISRLEPEDFAVYYCQQYGSEPLTFGGGTKVEIK
170000

Now consider MH7-2 (antibody, human IgG4, V domains shown) VH: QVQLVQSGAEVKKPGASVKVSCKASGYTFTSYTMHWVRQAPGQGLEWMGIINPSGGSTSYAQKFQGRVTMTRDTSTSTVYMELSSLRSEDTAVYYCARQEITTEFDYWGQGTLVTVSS VL: EIVLTQSPGTLSLSPGERATLSCRASQSVSSYANSYLHWYQQKPGQAPRLLIYRGSTRETGIPDRFSGSGSGTDFTLTISRLEPEDFAVYYCQQSKESPLTFGGGTKVEIK and answer again.
183000

Record: MH3 (antibody, IgG4, V domains shown, also called MH03) VH: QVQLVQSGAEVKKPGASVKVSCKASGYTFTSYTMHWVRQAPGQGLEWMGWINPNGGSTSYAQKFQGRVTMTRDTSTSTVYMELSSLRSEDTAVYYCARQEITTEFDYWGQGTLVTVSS VL: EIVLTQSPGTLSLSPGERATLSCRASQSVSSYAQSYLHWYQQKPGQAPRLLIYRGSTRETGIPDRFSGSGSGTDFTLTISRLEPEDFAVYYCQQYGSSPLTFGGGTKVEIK
150000
